protocolSummary: total protein half-life in vivo (active degradation + dilution); higher = more stable protein
conditionsUsed: E. coli NCM3722 delta-clpP delta-lon delta-hslV; growth: N-lim chemostat; doubling time 6 h
propertyMeasured: total protein half-life in vivo (h)
Quick reminder: number only, in h, skip the unit.

- monomerSequence: "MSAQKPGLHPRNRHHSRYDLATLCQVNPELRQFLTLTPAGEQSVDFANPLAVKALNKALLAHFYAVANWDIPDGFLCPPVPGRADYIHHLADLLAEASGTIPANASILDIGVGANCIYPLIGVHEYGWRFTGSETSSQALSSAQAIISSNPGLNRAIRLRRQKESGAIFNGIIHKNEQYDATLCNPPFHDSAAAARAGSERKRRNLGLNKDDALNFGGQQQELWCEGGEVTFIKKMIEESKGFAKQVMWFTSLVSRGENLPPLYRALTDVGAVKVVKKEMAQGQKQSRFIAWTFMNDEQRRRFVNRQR"
  total protein half-life in vivo, h: 5.5
- monomerSequence: "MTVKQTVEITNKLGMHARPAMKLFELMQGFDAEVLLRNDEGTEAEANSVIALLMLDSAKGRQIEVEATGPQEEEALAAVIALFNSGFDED [P0A9N0]"
  total protein half-life in vivo, h: 4.89
- monomerSequence: "MAQITTTDANEFSSSAEFIPMRGFSNCHLQTMLPRLFRRQVKFTPYWQRLELPDGDFVDLAWSENPAQAQHKPRLVVFHGLEGSLNSPYAHGLVEAAQKRGWLGVVMHFRGCSGEPNRMHRIYHSGETEDASWFLRWLQREFGHAPTAAVGYSLGGNMLACLLAKEGNDLPVDAAVIVSAPFMLEACSYHMEKGFSRVYQRYLLNLLKANAARKLAAYPGTLPINLAQLKSVRRIREFDDLITARIHGYADAIDYYRQCSAMPMLNRIAKPTLIIHAKDDPFMDHQVIPKPESLPPQVEYQLTEHGGHVGFIGGTLLHPQMWLESRIPDWLTTYLEAKSC"
  total protein half-life in vivo, h: 3.69

# context switch: different sequence, same total protein half-life in vivo
MSQIFAYCRISTLDQTTENQRREIESAGFKIKPQQIIEEHISGSAATSERPGFNRLLARLKCGDQLIVTKLDRLGCNAMDIRKTVEQLTETGIRVHCLALGGIDLTSPTGKMMMQVISAVAEFERDLLLERTHSGIVRARGAGKRFGRPPVLNEEQKQAVFERIKSGVSISAIAREFKTSRQTILRAKAKLQTPDI has a reported total protein half-life in vivo of 5.84

* * *

The following sequences are listed with their measured total protein half-life in vivo values.
protocolSummary: total protein half-life in vivo (active degradation + dilution); higher = more stable protein
conditionsUsed: E. coli NCM3722 delta-clpP delta-lon delta-hslV; growth: N-lim chemostat; doubling time 6 h
Reply with the number and its unit after it.

- monomerSequence: "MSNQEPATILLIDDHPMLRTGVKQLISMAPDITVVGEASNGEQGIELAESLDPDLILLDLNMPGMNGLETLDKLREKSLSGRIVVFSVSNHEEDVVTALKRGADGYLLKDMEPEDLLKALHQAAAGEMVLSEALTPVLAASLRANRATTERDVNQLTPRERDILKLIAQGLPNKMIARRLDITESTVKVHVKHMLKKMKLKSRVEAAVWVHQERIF [P0AF28]"
  recordedValue: "6.09 h"

The reported value for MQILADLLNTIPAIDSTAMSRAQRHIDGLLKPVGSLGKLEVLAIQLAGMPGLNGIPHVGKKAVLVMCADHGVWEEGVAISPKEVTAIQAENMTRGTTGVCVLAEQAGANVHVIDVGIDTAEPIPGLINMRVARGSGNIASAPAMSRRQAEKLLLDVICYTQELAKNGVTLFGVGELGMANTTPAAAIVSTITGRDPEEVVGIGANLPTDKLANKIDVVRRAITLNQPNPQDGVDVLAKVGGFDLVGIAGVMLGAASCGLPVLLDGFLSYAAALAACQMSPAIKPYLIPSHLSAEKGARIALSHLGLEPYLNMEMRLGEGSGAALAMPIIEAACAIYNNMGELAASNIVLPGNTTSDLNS in terms of total protein half-life in vivo is 4.97 h
